# System: noncancerous retinal pigment epithelium (RPE-1) cells
# Assay comment: (Photo-)cytotoxicity on 2D cell monolayers, RPE-1
# Condition set: read-out: IC50 540 nm (40 min, 9.5 J cm-2); RPE-1, 540 nm; 1-3 as chloride salts
Listed here: items and their measured pIC50.
// pIC50 is dimensionless: -log10 of concentration (M)

Please review the following examples before continuing.
Req: Look up pIC50: CN(C)c1ccc(/C=C/c2ccnc(-c3cc(/C=C/c4ccc(N(C)C)cc4)ccn3)c2)cc1.CN(C)c1ccc(/C=C/c2ccnc(-c3cc(/C=C/c4ccc(N(C)C)cc4)ccn3)c2)cc1.F[P-](F)(F)(F)(F)F.F[P-](F)(F)(F)(F)F.[Ru+2].c1ccc(-c2ccccn2)nc1 [compound 4]
Resp: 4.83

Req: Which pIC50 value is on record for COc1ccc(/C=C/c2ccnc(-c3cc(/C=C/c4ccc(OC)cc4)ccn3)c2)cc1.F[P-](F)(F)(F)(F)F.F[P-](F)(F)(F)(F)F.[Ru+2].c1ccc(-c2ccccn2)nc1.c1ccc(-c2ccccn2)nc1 [compound 7] ?
Resp: 5.08

Next:
Req: Entry CN(C)c1ccc(/C=C/c2ccnc(-c3cc(/C=C/c4ccc(N(C)C)cc4)ccn3)c2)cc1.F[P-](F)(F)(F)(F)F.F[P-](F)(F)(F)(F)F.[Ru+2].c1ccc(-c2ccccn2)nc1.c1ccc(-c2ccccn2)nc1 [compound 6] has what pIC50?
Resp: 5.09

Req: Look at this molecule and give its reported pIC50. COc1ccc(/C=C/c2ccnc(-c3cc(/C=C/c4ccc(OC)cc4)ccn3)c2)cc1.COc1ccc(/C=C/c2ccnc(-c3cc(/C=C/c4ccc(OC)cc4)ccn3)c2)cc1.F[P-](F)(F)(F)(F)F.F[P-](F)(F)(F)(F)F.[Ru+2].c1ccc(-c2ccccn2)nc1 [compound 5]
Resp: 4.90

---

# Test system: mouse colon carcinoma (CT-26) cells
# Assay comment: (Photo-)cytotoxicity on 2D cell monolayers, CT-26
# Condition set: CT-26, dark vs 540 nm
Parameter: PI (540 nm)

Here is how some molecules turned out for PI (540 nm).
Req: Record request: PI (540 nm) value, item COc1ccc(/C=C/c2ccnc(-c3cc(/C=C/c4ccc(OC)cc4)ccn3)c2)cc1.COc1ccc(/C=C/c2ccnc(-c3cc(/C=C/c4ccc(OC)cc4)ccn3)c2)cc1.F[P-](F)(F)(F)(F)F.F[P-](F)(F)(F)(F)F.[Ru+2].c1ccc(-c2ccccn2)nc1 [compound 5]
Resp: > 16.1

Req: State the recorded PI (540 nm) for this entry: C(=C\c1ccnc(-c2cc(/C=C/c3ccccc3)ccn2)c1)/c1ccccc1.C(=C\c1ccnc(-c2cc(/C=C/c3ccccc3)ccn2)c1)/c1ccccc1.C(=C\c1ccnc(-c2cc(/C=C/c3ccccc3)ccn2)c1)/c1ccccc1.F[P-](F)(F)(F)(F)F.F[P-](F)(F)(F)(F)F.[Ru+2] [compound 1]
Resp: > 3.0

Req: PI (540 nm) lookup needed for COc1ccc(/C=C/c2ccnc(-c3cc(/C=C/c4ccc(OC)cc4)ccn3)c2)cc1.COc1ccc(/C=C/c2ccnc(-c3cc(/C=C/c4ccc(OC)cc4)ccn3)c2)cc1.COc1ccc(/C=C/c2ccnc(-c3cc(/C=C/c4ccc(OC)cc4)ccn3)c2)cc1.F[P-](F)(F)(F)(F)F.F[P-](F)(F)(F)(F)F.[Ru+2] [compound 3] , thanks.
Resp: > 4.3

With those in mind, consider the next molecule.
Req: What does the record list as PI (540 nm) for CN(C)c1ccc(/C=C/c2ccnc(-c3cc(/C=C/c4ccc(N(C)C)cc4)ccn3)c2)cc1.CN(C)c1ccc(/C=C/c2ccnc(-c3cc(/C=C/c4ccc(N(C)C)cc4)ccn3)c2)cc1.CN(C)c1ccc(/C=C/c2ccnc(-c3cc(/C=C/c4ccc(N(C)C)cc4)ccn3)c2)cc1.F[P-](F)(F)(F)(F)F.F[P-](F)(F)(F)(F)F.[Ru+2] [compound 2] ?
Resp: > 1.6
